# System: NCI-H460
# Run Description: Antiproliferative activity against human NCI-H460 cells incubated for 48 hrs
# Format: functional, cell-based
# Condition Context: NCI-H460, 48 h
Observed Property: log10 IC50 (log10 of the value in µM)

Molecule: CC[C@H]1CCC[C@H](OC(=O)CCC[P+](c2ccccc2)(c2ccccc2)c2ccccc2)[C@@H](C)C(=O)C2=C[C@@H]3[C@@H](C=C[C@@H]4C[C@@H](O[C@@H]5O[C@@H](C)[C@H](OC)[C@@H](OC)[C@H]5OC)C[C@@H]34)[C@@H]2CC(=O)O1
Observed Property: log10 IC50
Experimental Value: 0.18
--
Molecule: CC[C@H]1CCC[C@H](O[C@H]2CC[C@H](N(C)CCC[P+](c3ccccc3)(c3ccccc3)c3ccccc3)[C@@H](C)O2)[C@@H](C)C(=O)C2=C[C@@H]3[C@@H](C=C[C@@H]4C[C@@H](O[C@@H]5O[C@@H](C)[C@H](OC)[C@@H](OC)[C@H]5OC)C[C@@H]34)[C@@H]2CC(=O)O1
Observed Property: log10 IC50
Experimental Value: 0.43
--
Molecule: CC[C@H]1CCC[C@H](O[C@H]2CC[C@H](N(C)CCCCCC[P+](c3ccccc3)(c3ccccc3)c3ccccc3)[C@@H](C)O2)[C@@H](C)C(=O)C2=C[C@@H]3[C@@H](C=C[C@@H]4C[C@@H](O[C@@H]5O[C@@H](C)[C@H](OC)[C@@H](OC)[C@H]5OC)C[C@@H]34)[C@@H]2CC(=O)O1.[Br-]
Observed Property: log10 IC50
Experimental Value: 0.20
--
Molecule: CC[C@H]1CCC[C@H](O[C@H]2CC[C@H](N(C)CCCCCC[n+]3ccccc3)[C@@H](C)O2)[C@@H](C)C(=O)C2=C[C@@H]3[C@@H](C=C[C@@H]4C[C@@H](O[C@@H]5O[C@@H](C)[C@H](OC)[C@@H](OC)[C@H]5OC)C[C@@H]34)[C@@H]2CC(=O)O1
Observed Property: log10 IC50
Experimental Value: 1.34
--
Molecule: CC[C@H]1CCC[C@H](O[C@H]2CC[C@H](N(C)CCCCCC[n+]3ccc4ccccc4c3)[C@@H](C)O2)[C@@H](C)C(=O)C2=C[C@@H]3[C@@H](C=C[C@@H]4C[C@@H](O[C@@H]5O[C@@H](C)[C@H](OC)[C@@H](OC)[C@H]5OC)C[C@@H]34)[C@@H]2CC(=O)O1.[Br-]
Observed Property: log10 IC50
Experimental Value: 0.66
--
Molecule: CC[C@H]1CCC[C@H](O[C@H]2CC[C@H](N(C)C)[C@@H](C)O2)[C@@H](C)C(=O)C2=C[C@@H]3[C@@H](C=C[C@@H]4C[C@@H](O[C@@H]5O[C@@H](C)[C@H](OC)[C@@H](OC)[C@H]5OC)C[C@@H]34)[C@@H]2CC(=O)O1 [SPINOSYN A]
Observed Property: log10 IC50
Experimental Value: 1.83

---

# Test system: U-87 MG
# Run Description: Antiproliferative activity against human U87MG cells incubated for 48 hrs
# Format: functional, cell-based, U-87MG ATCC
pIC50: −log10 of the molar value.
Observed Property: pIC50

Chemical String: CC[C@H]1CCC[C@H](O[C@H]2CC[C@H](N(C)CCCCCC[P+](c3ccccc3)(c3ccccc3)c3ccccc3)[C@@H](C)O2)[C@@H](C)C(=O)C2=C[C@@H]3[C@@H](C=C[C@@H]4C[C@@H](O[C@@H]5O[C@@H](C)[C@H](OC)[C@@H](OC)[C@H]5OC)C[C@@H]34)[C@@H]2CC(=O)O1.[Br-]
Observed Property: pIC50
Experimental Value: 5.89
--
Chemical String: CC[C@H]1CCC[C@H](O[C@H]2CC[C@H](N(C)CCC[P+](c3ccccc3)(c3ccccc3)c3ccccc3)[C@@H](C)O2)[C@@H](C)C(=O)C2=C[C@@H]3[C@@H](C=C[C@@H]4C[C@@H](O[C@@H]5O[C@@H](C)[C@H](OC)[C@@H](OC)[C@H]5OC)C[C@@H]34)[C@@H]2CC(=O)O1
Observed Property: pIC50
Experimental Value: 5.89
--
Chemical String: CC[C@H]1CCC[C@H](OC(=O)CCC[P+](c2ccccc2)(c2ccccc2)c2ccccc2)[C@@H](C)C(=O)C2=C[C@@H]3[C@@H](C=C[C@@H]4C[C@@H](O[C@@H]5O[C@@H](C)[C@H](OC)[C@@H](OC)[C@H]5OC)C[C@@H]34)[C@@H]2CC(=O)O1
Observed Property: pIC50
Experimental Value: 5.57

---

Reported values of IC50 for individual entries
# Test system: U-87 MG
# Run Description: Antiproliferative activity against human U87MG cells incubated for 48 hrs
# Type: functional, cell-based, U-87MG ATCC

Compound: CC[C@H]1CCC[C@H](O[C@H]2CC[C@H](N(C)C)[C@@H](C)O2)[C@@H](C)C(=O)C2=C[C@@H]3[C@@H](C=C[C@@H]4C[C@@H](O[C@@H]5O[C@@H](C)[C@H](OC)[C@@H](OC)[C@H]5OC)C[C@@H]34)[C@@H]2CC(=O)O1 [SPINOSYN A]
IC50, µM: 96.5

Compound: CC[C@H]1CCC[C@H](O[C@H]2CC[C@H](N(C)CCCCCC[n+]3ccc4ccccc4c3)[C@@H](C)O2)[C@@H](C)C(=O)C2=C[C@@H]3[C@@H](C=C[C@@H]4C[C@@H](O[C@@H]5O[C@@H](C)[C@H](OC)[C@@H](OC)[C@H]5OC)C[C@@H]34)[C@@H]2CC(=O)O1.[Br-]
IC50, µM: 2.5

Compound: CC[C@H]1CCC[C@H](O[C@H]2CC[C@H](N(C)CCCCCC[n+]3ccccc3)[C@@H](C)O2)[C@@H](C)C(=O)C2=C[C@@H]3[C@@H](C=C[C@@H]4C[C@@H](O[C@@H]5O[C@@H](C)[C@H](OC)[C@@H](OC)[C@H]5OC)C[C@@H]34)[C@@H]2CC(=O)O1
IC50, µM: 11.2
